# testedOn: UniProt P03956
# Sequence (P03956 100-469): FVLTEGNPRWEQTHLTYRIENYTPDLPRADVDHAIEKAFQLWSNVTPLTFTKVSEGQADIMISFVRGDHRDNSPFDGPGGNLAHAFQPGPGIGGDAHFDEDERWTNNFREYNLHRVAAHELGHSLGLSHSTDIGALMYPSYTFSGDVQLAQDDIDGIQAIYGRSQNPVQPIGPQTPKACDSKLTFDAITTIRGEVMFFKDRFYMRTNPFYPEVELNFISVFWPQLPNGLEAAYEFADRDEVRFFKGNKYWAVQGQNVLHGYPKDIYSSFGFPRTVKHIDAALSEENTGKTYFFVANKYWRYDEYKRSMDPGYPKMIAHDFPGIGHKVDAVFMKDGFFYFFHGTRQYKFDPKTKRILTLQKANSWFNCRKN
# measurementDescription: MMP-1 inhibitory action (Type I collagen Activity Measurement kit, FITC-labeled collagen type I)
# Format: biochemical
# particulars: MMP-1 inhibitory action, FITC-labeled collagen type I, 37° C. for 3 hr; read-out: IC50 MMP1 (Experimental Example 2)
pIC50: −log10 of the molar value.
resultType: pIC50

For orientation, consider the following solved cases.
INSERT INTO measurements (compound, reportedresult) VALUES
  ('O=C(O)[C@]1(NS(=O)(=O)c2ccc(-c3cc(C(F)(F)F)on3)s2)C[C@@H]1c1cccc(Br)c1', '≤ 6.00'),
  ('O=C1CCCCN1c1ccc(S(=O)(=O)N[C@@]2(C(=O)O)C[C@@H]2c2ccccc2)s1', '≤ 5.00'),
  ('CCNC(=O)c1ccc(S(=O)(=O)NC2(C(=O)O)CC2c2ccccc2)s1 (centres unmarked)', '≤ 5.00'),
  ('CN1CCN(c2ccc(C3CC3(NS(=O)(=O)c3ccc(-c4ccc(Cl)cc4)s3)C(=O)O)cc2)CC1 (centres unmarked) [Example 2-246]', '≤ 5.00');

State the recorded pIC50 for this entry: CN1CCN(C(=O)Cc2cccc(C3CC3(NS(=O)(=O)c3ccc(-c4cc(C(F)(F)F)on4)s3)C(=O)O)c2)CC1 (centres unmarked)
≤ 6.00

State the recorded pIC50 for this entry: O=C(O)C1(NS(=O)(=O)N2CCc3nc(-c4ccccc4)ncc3C2)CC1c1ccccc1 (centres unmarked)
≤ 5.00

State the recorded pIC50 for this entry: O=C(O)C1(NS(=O)(=O)c2ccc(-c3ccc(Cl)cc3)cc2)CC1c1cccc(OCCn2cccn2)c1 (centres unmarked)
≤ 6.00

State the recorded pIC50 for this entry: CN(C)C(=O)Cc1cccc(C2CC2(NS(=O)(=O)c2ccc(-c3ccc(Cl)cc3)s2)C(=O)O)c1 (centres unmarked)
≤ 5.00

State the recorded pIC50 for this entry: O=C(O)C1(NS(=O)(=O)c2ccc(-c3ccc(Cl)cc3)s2)CC1c1cccc(NS(=O)(=O)c2cccnc2)c1 (centres unmarked)
≤ 6.00
